All figures here come from patent US20260176249A1.

ASSAY_PROCEDURE: Permeability and efflux transporter substrate evaluation in Caco-2 cells
Assay type: in vitro ADME
Parameters: dose or concentration left out as unconfirmed
SETTINGS: human, Caco-2, pH 7.4; read-out: Classification Permeability
READOUT_TYPE: Papp at 120 min

>>> print(df.to_string())
                                    compound     readout_type              obs_value
 0  CN1CCN(c2ccc(OC(F)(F)F)c(Nc3ncc4c(n3)-c3c(c(C(=O)NS(=O)(=O)C(F)(F)F)nn3CCO)CC4)c2)CC1  Papp at 120 min       < 0.5 ×10⁻⁶ cm/s
 1  CCc1sc(C(N)=O)c2c1-c1nc(Nc3cc(N4CCN(C)CC4)ccc3OC(F)(F)F)ncc1CC2  Papp at 120 min       < 0.5 ×10⁻⁶ cm/s
 2  CN1CCN(c2ccc(OC(F)(F)F)c(Nc3ncc4c(n3)-c3c(c(C(=O)NO)nn3CCO)CC4)c2)CC1  Papp at 120 min       < 0.5 ×10⁻⁶ cm/s
 3  Cn1nc(C(N)=O)c2c1-c1nc(Nc3cc(N4CCN(CCO)CC4)ccc3OC(F)(F)F)ncc1CC2  Papp at 120 min  0.5 to 2.5 ×10⁻⁶ cm/s
 4  CN1CCN(c2ccc(OC(F)(F)F)c(Nc3ncc4c(n3)-c3c(c(C(=O)NNC(N)=O)nn3C)CC4)c2)CC1  Papp at 120 min       < 0.5 ×10⁻⁶ cm/s
 5  CN1CCN(c2ccc(OC(F)(F)F)c(Nc3ncc4ccc5c(C(N)=O)nn(CCF)c5c4n3)c2)CC1  Papp at 120 min  0.5 to 2.5 ×10⁻⁶ cm/s
 6  CN1CCN(c2ccc(OC(F)(F)F)c(Nc3ncc4c(n3)-c3c(c(C(N)=O)nn3CCC#N)CC4)c2)CC1  Papp at 120 min  0.5 to 2.5 ×10⁻⁶ cm/s
 7  CN1CCN(c2ccc(OC(F)(F)F)c(Nc3ncc4c(n3)-c3c(c(C(=O)NS(=O)(=O)C5CC5)nn3CCO)CC4)c2)CC1  Papp at 120 min       < 0.5 ×10⁻⁶ cm/s
 8  CN1CCN(c2ccc(OC(F)(F)F)c(Nc3ncc4c(n3)-c3c(c(C(=O)NN)nn3CCO)CC4)c2)CC1  Papp at 120 min       < 0.5 ×10⁻⁶ cm/s
 9  CN1C2CCC1CN(c1ccc(OC(F)(F)F)c(Nc3ncc4c(n3)-c3c(c(C(N)=O)nn3CCO)CC4)c1)C2  Papp at 120 min       < 0.5 ×10⁻⁶ cm/s
10  CN1CCN(c2ccc(OC(F)(F)F)c(Nc3ncc4c(n3)-c3c(c(C(N)=O)cn3CCO)CC4)c2)CC1  Papp at 120 min       < 0.5 ×10⁻⁶ cm/s
11  CN1CCN(c2ccc(OCC(F)(F)F)c(Nc3ncc4c(n3)-c3c(c(C(N)=O)nn3CCO)CC4)c2)CC1  Papp at 120 min       < 0.5 ×10⁻⁶ cm/s
12  CN1CCN(c2ccc(OC(F)(F)F)c(Nc3ncc4ccc5c(C(N)=O)nn(CCO)c5c4n3)c2)CC1  Papp at 120 min  0.5 to 2.5 ×10⁻⁶ cm/s
13  CN1CCN(c2ccc(OC(F)(F)F)c(Nc3ncc4c(n3)-c3c(c(C(=O)NOCCO)nn3C)CC4)c2)CC1  Papp at 120 min  0.5 to 2.5 ×10⁻⁶ cm/s
14  Cn1nc(C(N)=O)c2ccc3cnc(Nc4cc(N5CCN(CCO)CC5)ccc4OC(F)(F)F)nc3c21  Papp at 120 min  0.5 to 2.5 ×10⁻⁶ cm/s
15  CN1CCN(c2ccc(OC(F)(F)F)c(Nc3ncc4ccc5c(C(N)=O)nn(C)c5c4n3)c2)CC1  Papp at 120 min  0.5 to 2.5 ×10⁻⁶ cm/s
16  CN1CCN(c2ccc(OC(F)(F)F)c(Nc3ncc4c(n3)-c3c(c(C(N)=O)nn3CCO)CC4)c2)CC1 [Onvansertib, reference compound]  Papp at 120 min       < 0.5 ×10⁻⁶ cm/s
